Measured values drawn from ChEMBL document CHEMBL3044572 for this set.

- Test system: Salmonella typhi
- test: Antimicrobial activity against Salmonella enterica subsp. enterica serovar Typhi MTCC 733 by paper disk diffusion method
- Type: functional
Give inhibition zone (IZ) for every item shown.
Write the number in mm without appending the unit.

Identify measured inhibition zone (IZ) corresponding to N#Cc1ccc(Nc2nc(Oc3ncnc4ccccc34)nc(N3CCC(Cc4ccccc4)CC3)n2)cc1C(F)(F)F 22

Quote inhibition zone (IZ) reported for N#Cc1ccc(Nc2nc(Oc3ncnc4ccccc34)nc(N3CCN(c4cccc(Cl)c4Cl)CC3)n2)cc1C(F)(F)F please. 26

Name the recorded inhibition zone (IZ) of the molecule listed here: N#Cc1ccc(Nc2nc(Oc3ncnc4ccccc34)nc(N3CCN(C(c4ccccc4)c4ccccc4)CC3)n2)cc1C(F)(F)F 23

Provide one value: measured inhibition zone (IZ) of COc1ccc(N2CCN(c3nc(Nc4ccc(C#N)c(C(F)(F)F)c4)nc(Oc4ncnc5ccccc45)n3)CC2)cc1 25

* * *

- System: Salmonella typhi
- test: Antimicrobial activity against Salmonella enterica subsp. enterica serovar Typhi MTCC 733 by paper disk diffusion method
- Type: functional
reported property: inhibition zone (IZ)
Quick note: number first, unit second.

Tell me inhibition zone (IZ) reported for N#Cc1ccc(Nc2nc(Oc3ncnc4ccccc34)nc(N3CCN(c4cccc(C(F)(F)F)c4)CC3)n2)cc1C(F)(F)F 25 mm

Fill in reported inhibition zone (IZ) for this entry: N#Cc1ccc(Nc2nc(Oc3ncnc4ccccc34)nc(N3CCN(c4ncccn4)CC3)n2)cc1C(F)(F)F 22 mm

Return inhibition zone (IZ) (reported value) for this molecule: CC1CC(C)CN(c2nc(Nc3ccc(C#N)c(C(F)(F)F)c3)nc(Oc3ncnc4ccccc34)n2)C1 (centres undefined) 26 mm

Determine its reported inhibition zone (IZ): CC(C)N1CCN(c2nc(Nc3ccc(C#N)c(C(F)(F)F)c3)nc(Oc3ncnc4ccccc34)n2)CC1 23 mm

* * *

- Test system: Mycobacterium tuberculosis
- test: Antimicrobial activity against Mycobacterium tuberculosis H37Rv by Lowenstein and Jensen method
- Assay type: functional
- condition notes: Mycobacterium tuberculosis, H37Rv
Give measured MIC for each item. Keep answers brief.
Use µg/mL as the unit, but write only the number.

# lookup: Mycobacterium tuberculosis MIC, key = N#Cc1ccc(Nc2nc(Oc3ncnc4ccccc34)nc(N3CCN(c4cccc(Cl)c4Cl)CC3)n2)cc1C(F)(F)F 6.25

Enter measured MIC, system Mycobacterium tuberculosis, for the molecule shown: N#Cc1ccc(Nc2nc(Oc3ncnc4ccccc34)nc(N3CCN(Cc4ccccc4)CC3)n2)cc1C(F)(F)F 500

Provide MIC, recorded with Mycobacterium tuberculosis, of COc1ccc(N2CCN(c3nc(Nc4ccc(C#N)c(C(F)(F)F)c4)nc(Oc4ncnc5ccccc45)n3)CC2)cc1 25

Specify the recorded MIC for CN1CCN(c2nc(Nc3ccc(C#N)c(C(F)(F)F)c3)nc(Oc3ncnc4ccccc34)n2)CC1 , system: Mycobacterium tuberculosis. 250

Report value only: MIC, Mycobacterium tuberculosis, COc1ccc(CN2CCN(c3nc(Nc4ccc(C#N)c(C(F)(F)F)c4)nc(Oc4ncnc5ccccc45)n3)CC2)c(OC)c1OC 6.25

// fetch MIC for N#Cc1ccc(Nc2nc(Oc3ncnc4ccccc34)nc(N3CCN(c4ncccn4)CC3)n2)cc1C(F)(F)F ; system: Mycobacterium tuberculosis 200

State MIC on Mycobacterium tuberculosis. Entry: N#Cc1ccc(Nc2nc(Oc3ncnc4ccccc34)nc(N3CCN(c4ccccc4Cl)CC3)n2)cc1C(F)(F)F 25

Provide the reported MIC (system: Mycobacterium tuberculosis) for CC(C)N1CCN(c2nc(Nc3ccc(C#N)c(C(F)(F)F)c3)nc(Oc3ncnc4ccccc34)n2)CC1 50

Supply MIC measured with Mycobacterium tuberculosis for CC(=O)N1CCN(c2nc(Nc3ccc(C#N)c(C(F)(F)F)c3)nc(Oc3ncnc4ccccc34)n2)CC1 . 12.5

State measured MIC of the molecule CCN1CCN(c2nc(Nc3ccc(C#N)c(C(F)(F)F)c3)nc(Oc3ncnc4ccccc34)n2)CC1 with Mycobacterium tuberculosis. 500

Send back Mycobacterium tuberculosis MIC of N#Cc1ccc(Nc2nc(Oc3ncnc4ccccc34)nc(N3CCC(Cc4ccccc4)CC3)n2)cc1C(F)(F)F only. 500

Look up Mycobacterium tuberculosis data: MIC of CC1CC(C)CN(c2nc(Nc3ccc(C#N)c(C(F)(F)F)c3)nc(Oc3ncnc4ccccc34)n2)C1 (stereo not given) , then report it. 6.25

GET MIC | system: Mycobacterium tuberculosis | item: N#Cc1ccc(Nc2nc(Oc3ncnc4ccccc34)nc(N3CCN(C(c4ccccc4)c4ccccc4)CC3)n2)cc1C(F)(F)F 62.5

Give MIC for this entry on Mycobacterium tuberculosis: N#Cc1ccc(Nc2nc(Oc3ncnc4ccccc34)nc(N3CCN(c4ccccc4F)CC3)n2)cc1C(F)(F)F 12.5

Give MIC for this entry on Mycobacterium tuberculosis: N#Cc1ccc(Nc2nc(Oc3ncnc4ccccc34)nc(N3CCOCC3)n2)cc1C(F)(F)F 100
